kon overview
TESTED_TARGET: HRgpA-6H (Porphyromonas gingivalis) (UniProt P28784)
EXPERIMENT_SUMMARY: SPR Biacore 8K; table lists HRgpA-6H as ligand, antibody as analyte

{"BINDER": "H8 K222A (antibody, V domains shown) VH: QVQLQESGPGLVKPSETLSLTCTVSGFSLSIYSVHWIRQPPGKGLEWIGMIWGGGSSDYNSALKSRLTISKDTSKNQVSLKLSSVTAADTAVYYCARNGNFYAMDYWGQGTLVTVSS VL: EIVLTQSPGTLSLSPGERATLSCTASSSVSSSFLHWYQQKPGQAPQLWIYSTSNLASGIPARFSGSGSGTDYTLTISRLEPEDFATYYCHQYHHSPYIYTFGGGTKLEIK", "UNIT_INFO": "M⁻¹ s⁻¹", "kon": 58000}
{"BINDER": "H14 K222A (antibody, V domains shown) VH: QVQLQESGPGLVKPSETLSLTCTVSGFSLSIYSVHWIRQPPGKGLEWLGMIWGGGSSDYNSALKSRLTISKDTSKNQVSLKLSSVTAADTAMYYCARNGNFYAMDYWGQGTLVTVSS VL: EIVLTQSPGTLSLSPGERATLSCTASSSVSSSFLHWYQQKPGQAPQLWIYSTSNLASGIPDRFSGSGSGTDYTLTISRLEPEDFAVYYCHQYHHSPYIYTFGGGTKLEIK", "UNIT_INFO": "M⁻¹ s⁻¹", "kon": 50100}
{"BINDER": "H7 K222A (antibody, V domains shown) VH: QVQLQESGPGLVKPSETLSLTCTVSGFSLSIYSVHWIRQPPGKGLEWIGMIWGGGSSDYNSALKSRLTISKDTSKNQVSLKLSSVTAADTAVYYCARNGNFYAMDYWGQGTLVTVSS VL: EIVLTQSPGTLSLSPGERATLSCTASSSVSSSFLHWYQQKPGQAPQLWIYSTSNLASGIPDRFSGSGSGTDYTLTISRLEPEDFATYYCHQYHHSPYIYTFGGGTKLEIK", "UNIT_INFO": "M⁻¹ s⁻¹", "kon": 54800}
